- target.under.test: human recombinant COX-2 (Homo sapiens, UniProt P35354)
- Sequence (P35354 18-604): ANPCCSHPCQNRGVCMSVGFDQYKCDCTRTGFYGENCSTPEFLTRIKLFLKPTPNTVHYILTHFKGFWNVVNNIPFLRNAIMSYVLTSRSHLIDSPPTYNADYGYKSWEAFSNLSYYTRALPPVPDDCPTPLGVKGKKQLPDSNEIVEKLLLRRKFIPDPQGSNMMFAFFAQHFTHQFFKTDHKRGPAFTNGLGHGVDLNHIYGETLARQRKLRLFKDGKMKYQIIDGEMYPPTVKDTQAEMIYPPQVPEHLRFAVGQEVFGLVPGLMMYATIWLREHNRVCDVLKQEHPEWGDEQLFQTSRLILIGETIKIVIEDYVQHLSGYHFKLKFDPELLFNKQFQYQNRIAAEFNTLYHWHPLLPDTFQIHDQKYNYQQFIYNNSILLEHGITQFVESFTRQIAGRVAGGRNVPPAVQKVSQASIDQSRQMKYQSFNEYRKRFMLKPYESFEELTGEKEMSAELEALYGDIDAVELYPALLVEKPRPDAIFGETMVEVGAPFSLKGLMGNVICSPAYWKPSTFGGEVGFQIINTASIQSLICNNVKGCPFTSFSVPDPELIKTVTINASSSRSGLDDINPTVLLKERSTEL
- method.description: In vitro COX-2 inhibition, fluorescent inhibitor screening assay kit
- setup.conditions: conc 10 (uM)
# COX2 %inh listing for each entry below
Report as: number unit

Please review the entries below; each comes with its answer.
smiles	metric.name	result
O=C(Cn1cnc2c(cnn2-c2ccccc2)c1=O)Nc1ccc2ccccc2c1	COX2 %inh	9.91%
O=C(Cn1cnc2c(cnn2-c2ccccc2)c1=O)N(c1ccccc1)c1ccccc1	COX2 %inh	14.6%
CC(=NO)c1ccc(NC(=O)Cn2cnc3c(cnn3-c3ccccc3)c2=O)cc1	COX2 %inh	-103%

Consider now this further molecule.
Lookup: Request the reported COX2 %inh associated with O=C(Cn1cnc2c(cnn2-c2ccccc2)c1=O)Nc1ccc([N+](=O)[O-])cc1
Found: -15%

The reported numbers originate from paper PMC12472512.
